# SUBJECT OF TEST: UniProtKB Q9NPD5
# Sequence (Q9NPD5 whole entry): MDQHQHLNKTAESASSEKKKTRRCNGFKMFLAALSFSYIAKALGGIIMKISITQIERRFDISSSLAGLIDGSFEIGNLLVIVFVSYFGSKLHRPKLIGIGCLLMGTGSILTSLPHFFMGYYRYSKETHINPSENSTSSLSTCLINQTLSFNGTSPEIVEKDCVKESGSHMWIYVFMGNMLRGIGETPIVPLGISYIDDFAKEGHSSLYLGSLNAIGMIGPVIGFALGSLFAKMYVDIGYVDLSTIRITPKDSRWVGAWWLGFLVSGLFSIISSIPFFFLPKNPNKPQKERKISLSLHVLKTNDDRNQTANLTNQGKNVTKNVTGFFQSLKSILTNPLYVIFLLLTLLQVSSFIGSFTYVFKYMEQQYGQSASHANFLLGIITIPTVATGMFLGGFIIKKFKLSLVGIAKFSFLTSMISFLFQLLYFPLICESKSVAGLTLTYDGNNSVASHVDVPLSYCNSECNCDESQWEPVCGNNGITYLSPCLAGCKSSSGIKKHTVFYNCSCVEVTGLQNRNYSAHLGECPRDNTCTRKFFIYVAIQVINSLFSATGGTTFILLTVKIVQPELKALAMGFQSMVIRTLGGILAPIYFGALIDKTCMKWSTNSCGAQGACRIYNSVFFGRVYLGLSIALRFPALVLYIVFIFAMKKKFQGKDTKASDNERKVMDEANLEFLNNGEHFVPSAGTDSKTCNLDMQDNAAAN
METRIC NAME: IC50 (µM)

> print(dat)
                      smiles.notation  unit.label  measured.result
1  Cc1cc(O)cc2oc(=O)c3c(O)cc(O)cc3c12          µM              4.1

----------
# SUBJECT OF TEST: OATP1A2 (Homo sapiens, UniProt P46721)
# Construct: expressed in transfected cells; host or cells: A431
# Sequence (P46721 whole entry): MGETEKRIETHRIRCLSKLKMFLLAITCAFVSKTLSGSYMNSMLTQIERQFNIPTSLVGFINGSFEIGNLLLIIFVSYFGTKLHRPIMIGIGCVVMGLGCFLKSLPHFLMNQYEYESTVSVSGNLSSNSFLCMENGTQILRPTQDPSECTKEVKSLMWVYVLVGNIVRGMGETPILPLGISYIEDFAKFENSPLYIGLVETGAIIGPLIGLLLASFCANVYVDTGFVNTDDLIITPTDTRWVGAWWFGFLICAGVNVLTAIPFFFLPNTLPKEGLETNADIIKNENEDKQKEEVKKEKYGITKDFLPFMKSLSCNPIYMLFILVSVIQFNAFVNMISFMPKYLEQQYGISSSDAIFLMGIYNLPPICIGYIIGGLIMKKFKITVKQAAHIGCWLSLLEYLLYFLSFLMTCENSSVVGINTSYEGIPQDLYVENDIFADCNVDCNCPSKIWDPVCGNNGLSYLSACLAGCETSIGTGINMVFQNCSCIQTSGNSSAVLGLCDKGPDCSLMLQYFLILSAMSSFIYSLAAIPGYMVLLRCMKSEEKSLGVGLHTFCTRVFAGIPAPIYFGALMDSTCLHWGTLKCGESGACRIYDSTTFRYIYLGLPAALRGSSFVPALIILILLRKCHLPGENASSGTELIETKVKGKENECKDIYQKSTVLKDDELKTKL
# TEST: cell-based
# RUN CONDITIONS: A431-OATP1A2; sulforhodamine 101 0.5 µM; pH 7.4; 10 min; read-out: IC50, OATP1A2 inhibition
METRIC NAME: IC50 (µM)

> print(dat)
                                   compound  measured.result
1  Cc1cc(O)cc2oc(=O)c3c(O)cc(O)cc3c12 [AOH, Alternariol]              5.4
